# ASSAYED_SYSTEM: RXRβ (Mus musculus)
# Sequence (P28704 whole entry): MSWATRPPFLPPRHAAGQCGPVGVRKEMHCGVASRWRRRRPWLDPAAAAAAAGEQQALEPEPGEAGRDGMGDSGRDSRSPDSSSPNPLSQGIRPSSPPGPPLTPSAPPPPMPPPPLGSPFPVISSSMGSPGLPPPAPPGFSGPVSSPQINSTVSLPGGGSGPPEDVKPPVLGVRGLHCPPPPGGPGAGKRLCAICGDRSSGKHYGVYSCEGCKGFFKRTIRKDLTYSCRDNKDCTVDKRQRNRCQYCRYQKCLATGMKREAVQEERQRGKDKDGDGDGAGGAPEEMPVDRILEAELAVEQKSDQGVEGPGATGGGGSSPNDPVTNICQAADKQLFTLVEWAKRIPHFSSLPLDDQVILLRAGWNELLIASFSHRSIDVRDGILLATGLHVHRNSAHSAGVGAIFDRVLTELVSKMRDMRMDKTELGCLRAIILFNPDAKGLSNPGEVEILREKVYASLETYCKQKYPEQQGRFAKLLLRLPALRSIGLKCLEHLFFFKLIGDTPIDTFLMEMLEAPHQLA
# ASSAY_INFO: co-transfection assay (RAR/RXR agonist activity, luciferase reporter in CV-1 cells)
# EXPERIMENTAL_CONTEXT: read-out: RXRβ Pot
METRIC_NAME: pEC50
One number for each entry, as −log10 of the molar value.

In the examples that follow, each entry is paired with its recorded pEC50.
CC(/C=C/CC1CCCc2cc3c(cc21)C(C)(C)CCC3(C)C)=C\C(=O)O (racemic) [Compound 124b] ... 7.43
CC(/C=C/C=C1/CCOc2cc3c(cc21)C(C)(C)CCC3(C)C)=C\C(=O)O [Compound 144b] ... 7.35
CC(/C=C/C=C1\CCc2c1ccc1c2C(C)(C)CCC1(C)C)=C\C(=O)O [Compound 135b] ... 5.70
CC(/C=C/C=C1\CCOc2cc3c(cc21)C(C)(C)CCC3(C)C)=C\C(=O)O [Compound 119b] ... 5.94

Please state, for each entry, its recorded pEC50.
1. CC(/C=C/CN1CCCCc2cc3c(cc21)C(C)(C)CCC3(C)C)=C\C(=O)O [Compound 138b]
2. CCN1CC\C(=C/C=C/C(C)=C/C(=O)O)c2cc3c(cc21)C(C)(C)CCC3(C)C [Compound 147b]
3. CC(/C=C/C=C1\CCCc2cc3c(cc21)C(C)(C)CCC3(C)C)=C\C(=O)O [Compound 109b]
4. CC(/C=C/C=C1/CCCc2cc3c(cc21)C(C)(C)CCC3(C)C)=C\C(=O)O [Compound 101b]

Output line:
[6.69, 6.24, 7.19, 7.26]

Please state, for each entry, its recorded pEC50.
1. CC(/C=C/C=C1/CCC(C)(C)c2cc3c(cc21)C(C)(C)CCC3(C)C)=C\C(=O)O [Compound 106b]
2. CC(/C=C/CN1CCCc2c1ccc1c2C(C)(C)CCC1(C)C)=C\C(=O)O [Compound 143b]

Output line:
1: 7.28; 2: 6.33

====

# ASSAYED_SYSTEM: UniProtKB P13631
# Sequence (P13631 whole entry): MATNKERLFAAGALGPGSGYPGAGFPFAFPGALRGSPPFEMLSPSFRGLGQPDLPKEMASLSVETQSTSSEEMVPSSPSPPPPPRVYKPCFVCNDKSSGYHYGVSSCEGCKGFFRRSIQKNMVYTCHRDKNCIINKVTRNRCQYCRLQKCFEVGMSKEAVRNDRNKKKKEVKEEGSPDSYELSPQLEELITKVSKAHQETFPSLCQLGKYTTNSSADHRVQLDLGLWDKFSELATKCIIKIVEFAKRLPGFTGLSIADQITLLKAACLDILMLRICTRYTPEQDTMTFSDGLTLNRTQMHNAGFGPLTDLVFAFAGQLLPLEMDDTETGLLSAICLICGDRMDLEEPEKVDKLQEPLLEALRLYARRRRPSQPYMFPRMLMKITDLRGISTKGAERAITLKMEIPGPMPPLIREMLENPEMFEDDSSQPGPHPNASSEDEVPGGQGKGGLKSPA
# ASSAY_INFO: competitive binding of tritiated retinoids to retinoid receptors
# EXPERIMENTAL_CONTEXT: competition with tritiated retinoid, Cheng-Prussof equation
Mark Condition met for Kd under 90 nM, Condition not met if at or over.

Please review the entries below; each comes with its answer.
CCN1CC\C(=C/C=C/C(C)=C/C(=O)O)c2cc3c(cc21)C(C)(C)CCC3(C)C [Compound 147b] ... Condition met
CC(/C=C/CN1CCCCc2cc3c(cc21)C(C)(C)CCC3(C)C)=C\C(=O)O [Compound 138b] ... Condition not met
CC(/C=C/C=C1\CCOc2cc3c(cc21)C(C)(C)CCC3(C)C)=C\C(=O)O [Compound 119b] ... Condition met

Input line: Quick check: does CC(/C=C/C=C1/CCOc2cc3c(cc21)C(C)(C)CCC3(C)C)=C\C(=O)O [Compound 144b] have Kd under 90 nM?
Output line: Condition not met

Input line: Quick check: does CC(/C=C/C=C1/CCCc2cc3c(cc21)C(C)(C)CCC3(C)C)=C\C(=O)O [Compound 101b] have Kd under 90 nM?
Output line: Condition not met

Input line: Quick check: does CC(/C=C/C=C1\CCCc2cc3c(cc21)C(C)(C)CCC3(C)C)=C\C(=O)O [Compound 109b] have Kd under 90 nM?
Output line: Condition not met

The origin of these recorded values is patent EP0933350A1.
